Record set: pKi | Prostaglandin E2 receptor EP2 subtype (Homo sapiens) | literature, multiple sources.
pKi: −log10 of the molar value.
reported property: pKi

1) CCC1(C(O)C/C=C/[C@@H]2[C@@H](CCCc3ccc(C(=O)O)s3)CC[C@@H]2F)CCC1 (some centres unmarked) :: 7.44
2) CCCCCC(O)CCCN1CCC(=O)N1CCc1ccc(C(=O)O)cc1 (stereo in doubt) :: 5.49
3) COc1cc(CC2=CCc3c(F)ccc(CCc4ccc(C(=O)O)cc4)c32)cc(OC)c1 :: 7.08
4) O=C(O)c1ccc(CCC[C@@H]2[C@@H](CCCc3cc(Cl)cc(Cl)c3)[C@H](O)C[C@H]2Cl)s1 :: 9.22
5) O=C(O)c1ccc(CCC[C@@H]2[C@@H](C=CCCCCCO)[C@H](O)C[C@H]2Cl)s1 :: 7.22
6) CCCC1(C(O)CCCN2C(=O)CC[C@@H]2COCc2ccc(C(=O)O)s2)CCC1 (mixture of isomers) :: 5.92
